Some compounds, each annotated with its measured heart rate change.
Test system: spontaneously hypertensive rats
protocol_details: Antihypertensive efficacy test of pharmaceutical compositions in spontaneously hypertensive rats
Format: in vivo, rat
experimental_conditions: SHR, intragastric once a day, 28 days after administration
property_name: heart rate change (times/minute)

[[record]]
compound = "CCOc1nc2cccc(C(=O)OC(C)OC(=O)OCc3nc(C)c(C)nc3C)c2n1Cc1ccc(-c2ccccc2-c2noc(=O)[n-]2)cc1.[K+] (centres unmarked) [Compound 1K]"
property_name = "heart rate change"
numeric_readout = "−29.3"

[[record]]
compound = "CCCCC(=O)N(Cc1ccc(-c2ccccc2-c2nnn[nH]2)cc1)[C@H](C(=O)O)C(C)C [valsartan]"
property_name = "heart rate change"
numeric_readout = "−10.6"

[[record]]
compound = "CCOc1nc2cccc(C(=O)OCc3oc(=O)oc3C)c2n1Cc1ccc(-c2ccccc2-c2noc(=O)[n-]2)cc1.[K+] [Azilsartan kaMedoxoMil]"
property_name = "heart rate change"
numeric_readout = "−11.1"

[[record]]
compound = "CCOC(=O)[C@H](C)C[C@@H](Cc1ccc(-c2ccccc2)cc1)NC(=O)CCC(=O)[O-].[K+] [AHU 377K]"
property_name = "heart rate change"
numeric_readout = "−8.1"

[[record]]
compound = "CCOC(=O)[C@H](C)C[C@@H](Cc1ccc(-c2ccccc2)cc1)NC(=O)CCC(=O)O.N [AHU377 ammonium salt]"
property_name = "heart rate change"
numeric_readout = 3


----------
System: chronic heart failure rats
protocol_details: Therapeutic effect of pharmaceutical composition on chronic heart failure rats (high-salt fed DSS rats)
Type: in vivo, rat
experimental_conditions: high-salt (8% sodium chloride) fed DSS rats, administration for 7 weeks, analysis at 18-weeks-age
Below, each of the compounds is paired with its reported systolic pressure change value.
property_name: systolic pressure change (mmHg)

[[record]]
compound = "CCOc1nc2cccc(C(=O)OC(C)OC(=O)OCc3nc(C)c(C)nc3C)c2n1Cc1ccc(-c2ccccc2-c2noc(=O)[n-]2)cc1.[K+] (centres unmarked)"
units_text = "mmHg"
numeric_readout = "−48.5"

[[record]]
compound = "CCCCC(=O)N(Cc1ccc(-c2ccccc2-c2nnn[nH]2)cc1)[C@H](C(=O)O)C(C)C"
units_text = "mmHg"
numeric_readout = "−32.4"


----------
The reader will find reported systolic pressure change values listed item by item below.
Test system: chronic heart failure rats
protocol_details: Therapeutic effect of pharmaceutical composition on chronic heart failure rats (high-salt fed DSS rats)
Format: in vivo, rat
experimental_conditions: high-salt (8% sodium chloride) fed DSS rats, administration for 7 weeks, analysis at 18-weeks-age
property_name: systolic pressure change

[[record]]
molecule = "CCOC(=O)[C@H](C)C[C@@H](Cc1ccc(-c2ccccc2)cc1)NC(=O)CCC(=O)[O-].[K+] [AHU 377K]"
property_name = "systolic pressure change"
result = "−20.6p7Km mmHg"

[[record]]
molecule = "CCOC(=O)[C@H](C)C[C@@H](Cc1ccc(-c2ccccc2)cc1)NC(=O)CCC(=O)O.N [AHU377 ammonium salt]"
property_name = "systolic pressure change"
result = "−18.3p am mmHg"

[[record]]
molecule = "CCOc1nc2cccc(C(=O)OCc3oc(=O)oc3C)c2n1Cc1ccc(-c2ccccc2-c2noc(=O)[n-]2)cc1.[K+] [Azilsartan kaMedoxoMil]"
property_name = "systolic pressure change"
result = "−36.3sium mmHg"

